system: SN12C renal; assay: NCI-60 one-dose screen, 48 h; conditions: 10 µM unless noted
The panel holds about 83,000 compounds, 20% with a hit somewhere; the sample as a whole holds those more often. Activity calls are given as the source filed them. How the source made its calls: active means growth percent below 10; inactive means the rest.
Possible outcomes: active, inactive

>  <Molecule>
C[N+]1(C)C2CC[C@@H]1CC(OC(=O)C(O)c1ccccc1)C2 (some centres undefined)

>  <Answer Label>
inactive

$$$$
>  <Molecule>
O=C(CN1CCN(c2ccc(Cl)cc2)CC1)N1CCN(c2nnc(-c3ccc(Cl)cc3)c(-c3ccc(Cl)cc3)n2)CC1

>  <Answer Label>
inactive

$$$$
>  <Molecule>
O=C1NC(=O)/C(=C\c2ccco2)S1

>  <Answer Label>
inactive

$$$$
>  <Molecule>
Cc1ccc(/C=C(/C#N)n2nnc3ncccc32)cc1

>  <Answer Label>
active

$$$$
>  <Molecule>
CCN(CC)CCOCC[C@H]1CC[C@H]2[C@@H]3[C@H](C)Cc4cc(OS(N)(=O)=O)ccc4[C@H]3CC[C@]12C

>  <Answer Label>
active

$$$$
>  <Molecule>
COc1ccc(-c2ccc(O)c(C(=O)/C=C/c3cc(OC)c(OC)c(OC)c3)c2)cc1

>  <Answer Label>
inactive

$$$$
>  <Molecule>
CC(C)C[C@H](NC(=O)/C=C/Cn1ccc2ccccc2c1=O)B(O)O

>  <Answer Label>
inactive

$$$$
>  <Molecule>
Nc1c(C(=O)Nc2cccc(Cl)c2)sc2nc3c(cc12)C(O)CCC3 (centres undefined)

>  <Answer Label>
inactive

$$$$
>  <Molecule>
CN(C)CCCN=c1cc2c(=O)n(CCCN(C)C)c(=O)c3c(NCCCN(C)C)cc4c(O)n(CCCN(C)C)c(=O)c1c4c3-2

>  <Answer Label>
active

$$$$
>  <Molecule>
O=C(Nc1nc2ccc(OC(F)(F)F)cc2s1)c1ccc(F)cc1

>  <Answer Label>
inactive

$$$$
>  <Molecule>
COc1ccc(C2=NN(C(C)=O)C(c3cccc(Nc4ccnc5cc(Cl)ccc45)c3)C2)cc1 (centres undefined)

>  <Answer Label>
inactive

$$$$
>  <Molecule>
COc1cnc2c(c1)C(=O)c1c-2n(CCCN2CCOCC2)c(=O)c2cc(F)ccc12

>  <Answer Label>
inactive

$$$$
>  <Molecule>
O=Cc1ccccc1C(=O)O

>  <Answer Label>
inactive

$$$$
>  <Molecule>
CC(C)CC1NC(=O)C(CCCN)NC(=O)C(C(C)C)NC(=O)C2CCCN2C(=O)C(Cc2ccccc2)NC(=O)C(CC(C)C)NC(=O)C(CCCN)NC(=O)C(C(C)C)NC(=O)C2CCCN2C(=O)C(Cc2ccccc2)NC1=O (centres undefined)

>  <Answer Label>
active

$$$$
>  <Molecule>
Cc1cc(Cl)ccc1Nc1nc(C(F)(F)F)ccc1C(=O)N/N=C/c1ccc(Cl)cc1

>  <Answer Label>
active

$$$$
>  <Molecule>
CCOC(=O)C(C(=O)OCC)C1CCCCC1

>  <Answer Label>
inactive

$$$$
>  <Molecule>
COc1cc(/C=N/NC(=O)c2ccc(C(F)(F)F)nc2Nc2cc(Cl)ccc2C)cc(OC)c1OC

>  <Answer Label>
inactive

$$$$
>  <Molecule>
CNCCCn1c2c(c3ccc(F)cc3c1=O)C(=O)c1cc(OC)cnc1-2

>  <Answer Label>
active

$$$$
>  <Molecule>
CCN(CC)CCCCCCCNc1c2ccc(Cl)cc2nc2ccc(OC)cc12

>  <Answer Label>
active

$$$$
